molecular target: T1, P17-His protein (human CD40 antigen) (human, UniProt P25942 21-193, limits assumed); assay: BLI (Fortebio Octet RED96), antibody on Protein A sensor, P17-His 5-40 nM
T1 construct: also called human CD40 antigen (P17-His)
T1 sequence (P25942 other isoform, or with tags, fused parts or gaps limits assumed): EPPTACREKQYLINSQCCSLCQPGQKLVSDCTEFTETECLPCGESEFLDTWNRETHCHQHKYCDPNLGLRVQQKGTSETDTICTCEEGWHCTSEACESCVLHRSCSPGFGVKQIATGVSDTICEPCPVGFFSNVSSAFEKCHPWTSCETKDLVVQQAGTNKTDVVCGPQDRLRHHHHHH
Below, each of the binders is paired with its reported koff value.
Write down the numeric answer in s⁻¹ and omit the unit.

I would be grateful if you could share the reported koff for C8-8 antibody (antibody, V domains shown) VH: EVQLLESGGGLVRPGGSLRLSCAASGFTFGSYEMNWVRQAPGKGLEWVSYISSSGETTDYADSVKGRFTVSRDNSKNLLYLQMNSLRAEDTAVYYCARDVFFFDSSGPPGAYGMDVWGQGTMVTVSS VL: DIQLTQSPSSLTASVGDRVTITCRSSQGIRSSLAWYQQKPGKPPKLLIYGASSLEGGVPSRFSGSGSGTDFTLTISSLQPEDFATYYCQQLNSFPSTFGQGTKLEIK . 0.011

I would be grateful if you could share the reported koff for C8-11 antibody (antibody, V domains shown) VH: EVQLLESGGGLVRPGGSLRLSCAASGFTPGSYEMNWVRQAPGKGLEWVSYISSAGETTDYADSVKGRFTVSRDNSKNLLYLQMNSLRAEDTAVYYCARDVFFFDSSGDNGAYGMDVWGQGTMVTVSS VL: DIQLTQSPSSLTASVGDRVTITCRSSQGIRSSLAWYQQKPGKPPKLLIYGASSLLGGVPSRFSGSGSGTDFTLTISSLQPEDFATYYCQQLNSFPSTFGQGTKLEIK . 0.0148

Please give the measured koff for this binder: C8-6 antibody (antibody, V domains shown) VH: EVQLLESGGGLVRPGGSLRLSCAASGFTFGSYEMNWVRQAPGKGLEWVSYISSSGETTDYADSVKGRFTVSRDNSKNLLYLQMNSLRAEDTAVYYCARDVFFFDSSGSPGAYGMDVWGQGTMVTVSS VL: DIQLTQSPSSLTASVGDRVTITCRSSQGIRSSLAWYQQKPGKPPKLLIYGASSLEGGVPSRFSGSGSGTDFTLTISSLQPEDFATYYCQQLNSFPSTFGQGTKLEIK 0.00984

Which koff reading was recorded for the binder C8 clone anti-CD40 full-length antibody (antibody, human IgG1, kappa, V domains shown, also called C8-WT; C8 parent antibody) VH: EVQLLESGGGLVRPGGSLRLSCAASGFTFGSYEMNWVRQAPGKGLEWVSYISSSGETTDYADSVKGRFTVSRDNSKNLLYLQMNSLRAEDTAVYYCARDVFFFDSSGDNGAYGMDVWGQGTMVTVSS VL: DIQLTQSPSSLTASVGDRVTITCRSSQGIRSSLAWYQQKPGKPPKLLIYGASSLEGGVPSRFSGSGSGTDFTLTISSLQPEDFATYYCQQLNSFPSTFGQGTKLEIKR ? 0.0164

Please report the recorded koff for C8-2 antibody (antibody, V domains shown) VH: EVQLLESGGGLVRPGGSLRLSCAASGFTFGSYEMNWVRQAPGKGLEWVSYISSSGETTDYADSVKGRFTVSRDNSKNLLYLQMNSLRAEDTAVYYCARDVFFFSPSGDNGAYGMDVWGQGTMVTVSS VL: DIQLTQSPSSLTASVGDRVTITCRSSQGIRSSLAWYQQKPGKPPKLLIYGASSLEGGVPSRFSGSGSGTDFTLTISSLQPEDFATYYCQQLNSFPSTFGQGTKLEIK . 0.0111
